Reported %Inh values for the following compounds.
System: PIK3C2B
assay conditions: concentration: 1 μM, replicates: in singlicate; n = 1
Remember to follow the number with its unit.

# compound, target under test, %Inh
rows = [
    ("O=C(Nc1c(F)cccc1F)c1cc(C(=O)c2ccccc2F)c[nH]1 [GSK1326180]", "PIK3C2B", "0%"),
]

Enquiry: Give PIK3C2B %Inh for CN(C)c1ncnc2nc[nH]c12 [SKF-31736]
Return: 11%

Enquiry: Value wanted: %Inh (PIK3C2B) of entry COc1ccc(C2=C(Nc3cccc(O)c3)C(=O)NC2=O)cc1 [SB-390766]
Return: 0%

Enquiry: Item: Cn1cc(-c2ccc3c(c2)CCN3C(=O)Cc2cc(F)cc(F)c2F)c2c(N)ncnc21 [GSK2634140] Test system: PIK3C2B Read-out: %Inh Value: ?
Return: 82%

Enquiry: // map COc1cc(Nc2nccc(N3CCC(NC(=O)Nc4ccc5c(c4)OCO5)C3)n2)cc(OC)c1OC (stereo not drawn) [GSK1379766] to recorded %Inh (system: PIK3C2B)
Return: 8%

Enquiry: For PIK3C2B, provide %Inh of O=C(O)C(F)(F)F.O=c1[nH]ccc2nc(N[C@@H]3CCNC3)nc(Nc3ccc4c(c3)S(=O)(=O)CC4)c12 [GSK2181306] please.
Return: 12%

Enquiry: State its %Inh on PIK3C2B: O=C(Nc1n[nH]c2cc(-c3cccs3)ccc12)C1CC1 [SB-731284]
Return: 7%

Enquiry: What reported %Inh corresponds to COc1cc(Nc2nccc(N3CCC(NS(=O)(=O)c4ccc(NC(C)=O)cc4)CC3)n2)cc(OC)c1OC [GSK1379825] on PIK3C2B?
Return: 0%

Enquiry: Request: %Inh, test system PIK3C2B, entry O=C(Nc1n[nH]c2nc(-c3ccccc3O)ccc12)C1CC1 [SB-711880]
Return: 14%

Enquiry: I'm curious: which %Inh was measured for CN(C)CCNS(=O)(=O)c1ccc(-c2ccnc3[nH]ccc23)cc1 [GSK977620] tested on PIK3C2B?
Return: 0%

Enquiry: // lookup %Inh | system=PIK3C2B | key= N#Cc1cnc2cc(-c3cnc(CNCCN4CCOCC4)s3)ccc2c1Nc1ccc(Oc2ccccc2)cc1 [GW664114];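 note: KINOMEscan kinase panel screen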
Return: 0%

Enquiry: Notebook entry, PIK3C2B assay: %Inh of CNc1nccc(-c2ccc3c(N)n[nH]c3c2)n1 [GSK2206003] = ?
Return: 0%

Enquiry: What measured %Inh is associated with O=C(Nc1n[nH]c2nc(-c3ccccc3)ccc12)C1CC1 [SB-708999] on PIK3C2B?
Return: 0%

Enquiry: For the record Cl.N#CCc1ccc(Nc2nccc(Nc3ccc(Oc4ccccc4)cc3)n2)cc1 [GW639905] , what value of %Inh is listed for PIK3C2B?
Return: 0%

Enquiry: Query for PIK3C2B: what %Inh does the record show for Cc1cccc(Nc2nc(NCCN)ncc2C(N)=O)c1 [GSK1292139] ?
Return: 0%
